From: PubChem BioAssay (NCI)

System: OVCAR-3 ovarian
ASSAY_EXPLANATION: NCI-60 one-dose screen, 48 h
EXPERIMENTAL_CONTEXT: 10 µM unless noted
This is part of a sample that, as a whole, favours compounds with a hit. Of some 83,000 tested, about 20% had one in any assay. The source made the active and inactive calls. Rule for the calls: active = growth percent below 10; inactive = the rest.
Returns: one label drawn from active, inactive

Some solved cases for reference:
CC[C@]12CN3CCc4c([nH]c5ccccc45)[C@@](C(=O)OC)(c4cc5c(cc4OC)N(C)[C@H]4[C@@](O)(C(=O)OC)[C@H](OC(C)=O)[C@]6(CC)C=CCN7CC[C@]54[C@@H]76)CC(C3)[C@H]1O2 (stereo partly specified); active
COc1ccc(Nc2nn3c(SCC(=O)c4ccc(C)cc4)nnc3s2)cc1; inactive
COC(=O)N/N=C/c1c[n+]([O-])c2ccccc2[n+]1[O-]; inactive

Problem: Short answer needed: outcome of this test for `CCC(=C(c1ccc(OCCCN(C)C)cc1)c1ccc(OCCCN(C)C)cc1)c1ccc(Cl)cc1` ?
Result: active

Problem: Short answer needed: outcome of this test for `CCOC(=O)c1cc2c(n1Cc1cc(OC)cc(OC)c1Br)-c1nc(NC(C)=O)sc1CCC2` ?
Result: inactive

---

For each entry below, report its growth value.
Test system: NCI-H522 lung
ASSAY_EXPLANATION: NCI-60 one-dose screen, 48 h (100 = growth as untreated, 0 = no growth, -100 = all killed)
EXPERIMENTAL_CONTEXT: 100 µM
The panel holds about 83,000 compounds, 20% with a hit somewhere; the sample as a whole holds those more often. The source made the active and inactive calls. The calls were made as follows: active = growth percent below 10; inactive = the rest.

CCN(Cc1ccccc1)c1ccc(/C=C2\COc3ccccc3C2=O)cc1; 2.07% (active)
CC(=O)/C=C/c1ccc(N(CCO)Cc2ccc(C(C)(C)C)cc2)cc1; -71% (active)
O=C(/C=C/c1cccc(Oc2ccc(Cl)cc2)c1)c1ccccc1; -64.6% (active)
CC(=O)/C=C/c1ccc(OCc2ccc(Cl)cc2)cc1; -3.06% (active)
CC(=O)/C=C/c1ccc(N(C)Cc2ccc(C(C)(C)C)cc2)cc1; -76.4% (active)
COc1ccc(C(=O)/C=C/c2ccc(OCc3cccc(C(F)(F)F)c3)c(OC)c2)cc1OC; -18.5% (active)

Here is another compound to look at.
Problem: Requested field: growth. Item: `CC(=O)/C=C/c1ccc(OCc2ccc(C(C)(C)C)cc2)cc1`
Result: -8.78% (active)

---

For each entry below, report its growth value.
Test system: UO-31 renal
ASSAY_EXPLANATION: NCI-60 one-dose screen, 48 h (100 = growth as untreated, 0 = no growth, -100 = all killed)
EXPERIMENTAL_CONTEXT: 10 µM unless noted
This is part of a sample that, as a whole, favours compounds with a hit. Of some 83,000 tested, about 20% had one in any assay.
Give bare numbers, in %.

Consider the following illustrative entries.
CC1=CC=C(NC(=O)/C=C/c2ccccc2)CC1Nc1nccc(-c2cccnc2)n1 (stereo unspecified); 65.2
COc1ccc2c(c1)CCNC21C(=O)Nc2c(Br)cc(Br)cc21 (stereo unspecified); 62.1
COc1ccc(/C(C)=C(\c2ccc(OCCN3CCCCCC3)cc2)c2ccc(OC(=O)C3CCCCC3)cc2)cc1; -96.9
NNCCc1ccccc1; 77.5
Oc1ccccc1C=Nc1ccc(N2CCN(c3ccccc3)CC2)cc1; 86.3

# return growth for each item in the list
1. O=S(=O)(O)c1ccc(N=Nc2ccc(N=Nc3cccc4ccccc34)c(S(=O)(=O)O)c2)cc1
2. O=C(N=Nc1c(O)[nH]c2ccccc12)Nc1ccccc1Cl
3. CCOC(=O)c1ccc(Nc2ncnc3c2cnn3-c2cccc(F)c2)cc1
4. COC(=O)[C@H]1Cc2c([nH]c3ccccc23)[C@@H](c2cccs2)N1
5. CN(C)C1CCN(C(=O)c2ccc(NC(=O)Nc3ccc(-c4nc(N5CCOCC5)c5cccn5n4)cc3)cc2)CC1
6. N=c1ccccn1CCO

Result:
1. 84.1
2. 68.1
3. 72.1
4. 93
5. 8.27
6. 85.4

---

Test system: TK-10 renal
ASSAY_EXPLANATION: NCI-60 one-dose screen, 48 h (100 = growth as untreated, 0 = no growth, -100 = all killed)
EXPERIMENTAL_CONTEXT: 10 µM unless noted
Experimental: Growth inhibition of the TK-10 human tumor cell line is measured as a screen for anti-cancer activity. Cells are grown in 96 well plates and exposed to the test compound for 48 hours. Compounds are tested at a single concentration, which is 10^-5 M for most compounds. The reported endpoint is percent growth (GI% or GIPRCNT), where numbers from 0 - 100% represent growth inhibition, and numbers from -100% - 0 represent cell death. For example, a value of 40 represents 60% growth inhibition. […]
The panel holds about 83,000 compounds, 20% with a hit somewhere; the sample as a whole holds those more often.
For each entry below, report its growth value.
Answers are plain numbers, in %.

Consider the following illustrative entries.
CC1=CC=C(NC(=O)/C=C/c2ccccc2)CC1Nc1nccc(-c2cccnc2)n1 (stereo not given); 107
COc1ccc(Oc2nc(Nc3ccc(N4CCOCC4)cc3)ncc2NC(=O)c2cccc(C(F)(F)F)c2)cc1; 93
C#CCOCC1CN(C)C(=O)O1 (stereo not given); 110
Nc1nc2ccccc2c2c(=O)c3ccc(Cl)cc3sc12; 130

# return growth for each item in the list
1. CN1CCN(Cc2ccc(NC(=O)c3nc4ccc5[nH]ncc5c4c4c3CCCC4)cc2C(F)(F)F)CC1
2. COc1ccc(C2=C(CN)C(O)NC(=NCC(=O)c3ccc4ccccc4c3)N2)cc1 (stereo not given)
3. O=C1/C(=C/c2cn(-c3ccccc3)nc2-c2ccccc2)SC(=S)N1c1ccc(Cl)cc1

Result:
[-86.7, 98.1, 91.8]

---

For each entry below, report its growth value.
System: M14 melanoma
ASSAY_EXPLANATION: NCI-60 one-dose screen, 48 h (100 = growth as untreated, 0 = no growth, -100 = all killed)
EXPERIMENTAL_CONTEXT: 10 µM unless noted
About 83,000 compounds went through this panel and 20% of them were active in at least one assay; those are over-represented in the sample as a whole.
Give bare numbers, in %.

Consider the following illustrative entries.
COc1cc(-c2[nH]ncc2Nc2ccc(Cl)cc2)cc(OC)c1OC; 71.3
O=C1CCc2c(sc3[nH]c(=S)n(Cc4ccc(Cl)cc4)c(=O)c23)C1; 12.4

# return growth for each item in the list
1. C=C[C@]1(C)C=C2CC[C@@H]3C(C)(C)C(=O)CC[C@@]3(C)[C@@H]2CC1
2. NCCOCCOc1ccccc1

Result:
103
102

---

Test system: MCF7 breast
ASSAY_EXPLANATION: NCI-60 one-dose screen, 48 h
EXPERIMENTAL_CONTEXT: 10 µM unless noted
The panel holds about 83,000 compounds, 20% with a hit somewhere; the sample as a whole holds those more often. The source made the active and inactive calls. How the source made its calls: active means growth percent below 10; inactive means the rest.
Returns: one label drawn from class 1 for active, class 0 for inactive

Some solved cases for reference:
Cc1ccc(S(=O)(=O)OC[C@@]2(C)CC[C@]3(C)CC[C@]4(C)C(=CC[C@@H]5[C@@]6(C)CCCNC(C)(C)[C@@H]6CC[C@]54C)[C@@H]3C2)cc1; class 1
COc1ccc(NC(=O)Nc2ccccc2CNc2nc(Nc3ccc(OCCN4CCCC4)cc3)ncc2Cl)cc1; class 1
Nc1n[nH]c2cccc(C#Cc3cccc(C(=O)Nc4ccc(CN5CCOCC5)c(C(F)(F)F)c4)c3)c12; class 0
O=C1/C(=C/c2cn(-c3ccccc3)nc2-c2ccccc2)SC(=S)N1c1ccccc1; class 0
Fc1ccccc1-c1cnn2cc(-c3ccccc3)cnc12; class 0

Problem: Short answer needed: outcome of this test for `O=S(=O)(O)c1ccc(N=Nc2ccc(N=Nc3cccc4ccccc34)c(S(=O)(=O)O)c2)cc1` ?
Result: class 0

Problem: Short answer needed: outcome of this test for `CCCCCCCCn1ccc2cc(NC(=O)CN3CCN(c4nc(C)cc(N5CCCCC5)n4)CC3)ccc21` ?
Result: class 0

Problem: Short answer needed: outcome of this test for `Cc1cc(N2CCCCC2)nc(NCc2cc(Nc3ccnc4cc(Cl)ccc34)ccc2F)n1` ?
Result: class 1

---

Test system: MOLT-4 leukemia
ASSAY_EXPLANATION: NCI-60 one-dose screen, 48 h
EXPERIMENTAL_CONTEXT: 10 µM unless noted
About 83,000 compounds went through this panel and 20% of them were active in at least one assay; those are over-represented in the sample as a whole. Active and inactive are the calls of the source. Rule for the calls: active = growth percent below 10; inactive = the rest.
Returns: one label drawn from y for active, n for inactive

Some solved cases for reference:
O=C1/C(=C/c2ccccc2)CN(C(=O)C(Cl)Cl)C/C1=C\c1ccccc1; y
N#C/C(=N\Nc1ccc(Cl)cc1)C(=O)Nc1cc(-c2ccccc2)nn1-c1ccccc1; n
COc1ccc(C/C(C)=C(/c2ccc(OCCN3CCCC3)cc2)c2ccc(OC(=O)NCc3ccccc3)cc2)cc1; n
COc1cc2ncnc(Nc3ccc(F)c(Cl)c3)c2cc1OCC(=O)N1CCCCC1; n

Problem: Short answer needed: outcome of this test for `Nc1nc(Nc2ccc(F)cc2)nn1C(=O)c1cc(Cl)ccc1Cl` ?
Result: n
